system: Heart; experiment: Cardioprotective activity against Langendorff isolated mouse heart ischemia-reperfusion model assessed as minimum derivative change in diastolic pressure over time at 1 uM administered for 10 mins during start of 40 mins reperfusion period post 30 mins ischemic induction; format: functional, tissue-based
Calls of active or inactive are those of the source. The rule behind the calls is not given here. Starred links: 1 amine or outer side, 2 acyl side, 3 side chain; linkers in the order of their positions; H or OH if unused. Non-standard residues stand in square brackets, D forms with d. Residues, ends and D or L forms follow the SMILES beside them. Phe(4-Br) = N[C@@H](Cc1ccc(Br)cc1)C(=O)O; X1 = N=C(N)NCCCN(N[*:1])C(=O)[*:2]; Nle = CCCC[C@H](N)C(=O)O; Aib = CC(C)(N)C(=O)O
Would you mind answering with one of these outcomes? active, inactive

Worked set:
CCCC[C@H](NC(=O)[C@@H]1CCCN1C(=O)CNC(=O)[C@H](CCCCN)NC(=O)[C@H](Cc1c[nH]cn1)NC(=O)[C@H](CO)NC(=O)N(CC(C)C)NC(=O)[C@H](CCCNC(=N)N)NC(=O)[C@@H]1CCCN1C(=O)[C@H](CCCNC(=N)N)NC(=O)[C@@H]1CCC(=O)N1)C(=O)NC(C)(C)C(=O)N[C@@H](Cc1ccc(Br)cc1)C(=O)O : inactive
CSCC[C@H](NC(=O)[C@@H]1CCCN1C(=O)CNC(=O)[C@H](CCCCN)NC(=O)[C@H](Cc1cnc[nH]1)NC(=O)[C@H](CO)NC(=O)[C@H](CC(C)C)NC(=O)[C@H](CCCNC(=N)N)NC(=O)[C@@H]1CCCN1C(=O)[C@H](CCCNC(=N)N)NC(=O)[C@H](CCC(N)=O)NC(=O)[C@H](CCCNC(=N)N)NC(=O)[C@H](CCCNC(=N)N)NC(=O)[C@H](Cc1ccccc1)NC(=O)[C@@H](N)CCCCN)C(=O)N1CCC[C@H]1C(=O)N[C@@H](Cc1ccccc1)C(=O)O : active

Q. Entry CCCC[C@H](NC(=O)[C@@H]1CCCN1C(=O)CNC(=O)[C@H](CCCCN)NC(=O)[C@H](Cc1c[nH]cn1)NC(=O)[C@H](CO)NC(=O)[C@H](CC(C)C)NC(=O)N(CCCNC(=N)N)NC(=O)[C@@H]1CCCN1C(=O)[C@H](CCCNC(=N)N)NC(=O)[C@H](CCC(N)=O)NC(=O)[C@H](CCCNC(=N)N)NC(=O)[C@H](CCCNC(=N)N)NC(=O)[C@H](Cc1ccccc1)NC(=O)[C@@H](N)CCCCN)C(=O)NC(C)(C)C(=O)N[C@@H](Cc1ccc(Br)cc1)C(=O)O (H-KFRRQRP[X1]LSHKGP[Nle][Aib][Phe(4-Br)]-OH) : call = ?
A. active
